B1: LINE1-full (parent)
chain: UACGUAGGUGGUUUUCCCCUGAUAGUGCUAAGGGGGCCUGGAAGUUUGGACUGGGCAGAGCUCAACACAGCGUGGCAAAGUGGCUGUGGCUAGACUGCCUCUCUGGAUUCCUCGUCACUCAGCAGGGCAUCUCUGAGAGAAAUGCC

Variants of: B1
Assay: self-cleavage, relative activity (ratio to wild type); higher = more cleavage; in vitro, sequencing; the parent is a self-cleaving ribozyme
Decide using self-cleavage: a value greater than or equal to 0.7 is met, a smaller one is not met.

A43U A67G = not met
A92U G105A = met
U39A U45C = met
U13A A59U = not met
U39A G54A = not met
A57G A65U = not met
C16U U87A = not met
G54A A117G = not met
A64G G93A = not met
U23A U85A = not met

Dear colleague, could you confirm whether A2U A121G has self-cleavage at or above 0.7?
met

Does A65G G89C have a reported self-cleavage of at least 0.7?
not met

Where do the numbers come from? From the RNAGym collection of RNA variant scans (doi:10.7554/elife.90254).
